# assay system: human MCH-1 receptor (Homo sapiens, UniProt Q99705)
# Sequence (Q99705 whole entry): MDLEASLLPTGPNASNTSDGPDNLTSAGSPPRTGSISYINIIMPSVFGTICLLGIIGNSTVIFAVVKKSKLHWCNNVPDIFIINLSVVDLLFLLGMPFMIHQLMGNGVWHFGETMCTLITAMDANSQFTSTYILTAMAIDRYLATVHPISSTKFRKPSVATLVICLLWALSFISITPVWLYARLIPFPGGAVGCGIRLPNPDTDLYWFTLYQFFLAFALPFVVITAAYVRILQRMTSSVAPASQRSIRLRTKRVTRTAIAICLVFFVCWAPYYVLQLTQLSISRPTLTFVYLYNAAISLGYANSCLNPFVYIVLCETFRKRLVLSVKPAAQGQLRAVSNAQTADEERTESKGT
# assay remarks: Binding assay for human melanin-concentrating hormone (MCH-1) receptor, radioligand displacement on CHO-K1 cell membranes
# measurement conditions: read-out: MCH1 % inhibition @ 1 uM
Structures can show the parent of a compound that is named as a salt.
assay readout: inhibition at 1 µM (%)
Just the number please, in %, no unit attached.

// query What is its inhibition at 1 µM for human MCH-1 receptor (Homo sapiens, UniProt Q99705)? Entry: Cl.O=c1cc(OCc2ccc(F)cn2)ccn1-c1ccc2sc3c(c2c1)CCCNC3 [Example 120, hydrochloride]
// result 1.3

// query How about O=C1NCCc2c1sc1cc(-n3ccc(OCc4ccc(F)cn4)cc3=O)ccc21 ?
// result 60

// query How about O=c1cc(OCc2ccc(F)cn2)ccn1-c1ccc2oc3c(c2c1)CNCC3 [Example 76, hydrochloride] ?
// result 35

// query How about O=c1cc(OCc2ccccc2)ccn1-c1ccc2oc3c(c2c1)CNCCC3 [Example 78, hydrochloride] ?
// result 35

// query How about Cl.O=c1cc(OCc2ccc(F)cn2)ccn1-c1ccc2sc3c(c2c1)CCNC3 [Example 66, hydrochloride] ?
// result 34

// query How about O=c1cc(OCc2ccc(F)cn2)ccn1-c1ccc2oc3c(c2c1)CCCNC3 [Example 109, hydrochloride] ?
// result 12

// query How about CN1CCCc2oc3cc(N4CCN(CCc5ccc(F)cn5)CC4=O)ccc3c2C1 [Example 95, hydrochloride] ?
// result 62

// query How about Cl.O=c1cc(OCc2ccccc2)ccn1-c1ccc2sc3c(c2c1)CNCCC3 [Example 118, hydrochloride] ?
// result 7.7

====

# assay system: human MCH-1 receptor (Homo sapiens)
Structures can show the parent of a compound that is named as a salt.
Quick rule for you: Ki under 30 nM gets TRUE, anything else gets FALSE.

// query Given the entry CC(C)N1CCCc2oc3cc(N4CCN(CCc5ccc(Cl)cc5)CC4=O)ccc3c2C1 [Example 96, hydrochloride] , would its reported Ki be below 30 nM?
// result FALSE

// query How about CN1CCCc2oc3cc(N4CCN(CCc5ccc(Cl)cc5)CC4=O)ccc3c2C1 [Example 93, hydrochloride] ?
// result FALSE

// query How about CN1CCc2oc3cc(-n4ccc(OCc5ccc(F)cn5)cc4=O)ccc3c2C1 [Example 23, hydrochloride] ?
// result TRUE

// query How about O=c1cc(CCc2ccc(F)cn2)ccn1-c1ccc2c3c(oc2c1)CCCNC3 [Example 100, hydrochloride] ?
// result TRUE

// query How about CC(C)N1CCc2oc3cc(-n4ccc(OCc5ccccc5)cc4=O)ccc3c2C1 [Example 30, hydrochloride] ?
// result TRUE

// query How about C[C@@H]1Cc2oc3cc(-n4ccc(OCc5ccccn5)cc4=O)ccc3c2CN1 [Example 8, hydrochloride] ?
// result FALSE

// query How about Cl.O=c1cc(CCc2ccc(F)cn2)ccn1-c1ccc2c3c(oc2c1)CCNC3 [Example 102, hydrochloride] ?
// result TRUE

// query How about O=c1cc(OCc2ccc(F)cn2)ccn1-c1ccc2c3c(sc2c1)CN(CCF)CC3 [Example 59, hydrochloride] ?
// result FALSE

// query How about Cl.O=c1cc(CCc2ccccc2)ccn1-c1ccc2c3c(oc2c1)CCNC3 [Example 104, hydrochloride] ?
// result TRUE

// query How about O=c1cc(OCc2ccccc2)ccn1-c1ccc2sc3c(c2c1)CCNCC3 [Example 117, hydrochloride] ?
// result FALSE

// query How about O=c1cc(OCc2ccc(F)cn2)ccn1-c1ccc2c3c(sc2c1)CNCC3 [Example 14, hydrochloride] ?
// result TRUE

// query How about O=C1CN(CCc2ccc(Cl)cc2)CCN1c1ccc2c3c(oc2c1)CCCNC3 [Example 89, hydrochloride] ?
// result TRUE

// query How about CC(C)N1CCCc2oc3cc(-n4ccc(OCc5cccc(C(F)(F)F)n5)cc4=O)ccc3c2C1 [Example 81, hydrochloride] ?
// result FALSE

// query How about O=c1cc(OCc2ccccc2)ccn1-c1ccc2oc3c(c2c1)CCNCC3 [Example 77, hydrochloride] ?
// result FALSE

// query How about C[C@H]1Cc2oc3cc(-n4ccc(OCc5ccccn5)cc4=O)ccc3c2CN1 [Example 34, hydrochloride] ?
// result FALSE
